Each entry below lists one item and its recorded viability, T/C value.
System: 496974-208-R-J2-PDC complex spheroids, growth % test/control;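 also: spheroids exposed to the drugs for 7 days before readout; 100% = DMSO vehicle control wells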
Experiment Description: Anticancer human tumor 496974-208-R-J2-PDC patient-derived pancreatic carcinoma cell line growth inhibition [CLK]
Setup Conditions: second compound 0.316 µM; first compound 1 µM; stronger effect = lower value
The response must be a number in % with no trailing unit.

>>> obs_value("COc1c(OCCCN2CCOCC2)ccc2c3n(c(=NC(=O)c4cnc(N)nc4)nc12)CCN3 + CN1CCN(c2cc(C(=O)Nc3cc4cc(-c5cnn(C)c5)ccc4cn3)ccn2)CC1")
0.56
>>> obs_value("CCCS(=O)(=O)Nc1ccc(F)c(C(=O)c2c[nH]c3ncc(-c4ccc(Cl)cc4)cc23)c1F + CN1CCN(c2cc(C(=O)Nc3cc4cc(-c5cnn(C)c5)ccc4cn3)ccn2)CC1")
12.3
>>> obs_value("CCCS(=O)(=O)Nc1ccc(F)c(C(=O)c2c[nH]c3ncc(-c4ccc(Cl)cc4)cc23)c1F + CNC(=O)c1ccc(Nc2nc(OC3CCCC3)c3c(-c4ccc5nc(C)oc5c4)c[nH]c3n2)c(OC)c1")
71.2
>>> obs_value("CC(CO)NC(=O)c1cc(-c2ccc(Cl)cc2)nn(-c2cnn(C)c2)c1=O (stereo unspecified) + CNC(=O)c1ccc(Nc2nc(OC3CCCC3)c3c(-c4ccc5nc(C)oc5c4)c[nH]c3n2)c(OC)c1")
69
>>> obs_value("C=C(F)C(=O)N1CCN(c2nc(OCC3CCCN3C)nc3c2CCN(c2cccc4cccc(Cl)c24)C3)CC1CC#N (stereo unspecified) + CNC(=O)c1ccc(Nc2nc(OC3CCCC3)c3c(-c4ccc5nc(C)oc5c4)c[nH]c3n2)c(OC)c1")
76.2

Q) Can you share its viability, T/C? I mean this compound: CCc1c2c(nc3ccc(O)cc13)-c1cc3c(c(=O)n1C2)COC(=O)[C@]3(O)CC + CNC(=O)c1ccc(Nc2nc(OC3CCCC3)c3c(-c4ccc5nc(C)oc5c4)c[nH]c3n2)c(OC)c1
A) 3.21

Q) Can you share its viability, T/C? I mean this compound: O=C(c1cc(Cc2n[nH]c(=O)c3ccccc23)ccc1F)N1CCN(C(=O)C2CC2)CC1 + CN1CCN(c2cc(C(=O)Nc3cc4cc(-c5cnn(C)c5)ccc4cn3)ccn2)CC1
A) 6.21

Q) Can you share its viability, T/C? I mean this compound: COc1cccc2c1C(=O)c1c(O)c3c(c(O)c1C2=O)CC(O)(C(=O)CO)CC3OC1CC(N)C(O)C(C)O1 (stereo unspecified) + CN1CCN(c2cc(C(=O)Nc3cc4cc(-c5cnn(C)c5)ccc4cn3)ccn2)CC1
A) 0.81

Q) Can you share its viability, T/C? I mean this compound: CCN1CCN(Cc2ccc(Nc3ncc(F)c(-c4cc(F)c5nc(C)n(C(C)C)c5c4)n3)nc2)CC1 + CN1CCN(c2cc(C(=O)Nc3cc4cc(-c5cnn(C)c5)ccc4cn3)ccn2)CC1
A) 9.83

Q) Can you share its viability, T/C? I mean this compound: O=c1[nH]cc(F)c(=O)[nH]1 + CNC(=O)c1ccc(Nc2nc(OC3CCCC3)c3c(-c4ccc5nc(C)oc5c4)c[nH]c3n2)c(OC)c1
A) 70.4

Q) Can you share its viability, T/C? I mean this compound: CC(CO)NC(=O)c1cc(-c2ccc(Cl)cc2)nn(-c2cnn(C)c2)c1=O (stereo unspecified) + CN1CCN(c2cc(C(=O)Nc3cc4cc(-c5cnn(C)c5)ccc4cn3)ccn2)CC1
A) 6.92

Attribution: PubChem BioAssay AID2060615
